Literature survey of pKi (system: UniProt O60674).
pKi: −log10 of the molar value.

Solved cases (5 shown):
Request: Quick check: pKi on UniProt O60674, item `COC[C@H]1CCCN1c1nc(-c2c[nH]c3ncncc23)ncc1F` ?
Result: 5.30 to 6.30

Request: I'm curious: which pKi was measured for N#Cc1cccc(F)c1-c1cc(-n2ccc(N3CCCC(C(N)=O)C3)n2)c2c(n1)CNC2=O (stereo not shown) tested on UniProt O60674?
Result: 7.00 to 8.00

Request: Write down the reported pKi of `C[C@H](Nc1cc(C(=O)O)nc(-c2c[nH]c3ncncc23)n1)C(=O)NCC(F)(F)F` , test system: UniProt O60674.
Result: < 5.30

Request: For UniProt O60674, provide pKi of `C[C@]1(O)CCCN(c2ccn(-c3cc(-c4c(F)cccc4C#N)nc4c3C(=O)NC4)n2)C1` please.
Result: 8.00 to 10.00

Request: Please state recorded pKi (tested on UniProt O60674) of N#Cc1cccc(F)c1-c1cc(-n2ccc(N3CCCC(C(=O)N4CCCC4)C3)n2)c2c(n1)CNC2=O (stereo not shown)
Result: 8.00 to 10.00

Others:
Request: Item: `O=C1NCc2nc(-c3c(F)cccc3F)cc(Nc3ccc(C(O)(C(F)(F)F)C(F)(F)F)cc3)c21` Test system: UniProt O60674 Read-out: pKi Value: ?
Result: 7.00 to 8.00

Request: I'm curious: which pKi was measured for `C[C@H](Nc1cc(-c2c(N)nn3cccnc23)nc(C2CC2)n1)c1ccc(F)cc1` tested on UniProt O60674?
Result: > 8.00

Request: Query pKi on UniProt O60674 for `[2H]C1([2H])N(c2ccn(-c3cc(-c4c(F)cccc4C#N)nc4c3C(=O)NC4)n2)C([2H])([2H])[C@@]([2H])(O)C1([2H])[2H]`
Result: 7.00 to 8.00

###

pKi: −log10 of the molar value.
Compiled from multiple publications: pKi readings for Tyrosine-protein kinase JAK2 (Homo sapiens).

Request: State the recorded pKi for this entry: `O=C(NCC(F)(F)F)C1(Nc2nc(-c3c[nH]c4ncncc34)ncc2F)CCCCC1`
Result: > 6.30

Next:
Request: For the molecule `CCNC(=O)C(C)(C)c1ccc(Nc2cc(-c3c(F)cccc3C#N)nc3c2C(=O)NC3)cc1` , what pKi is on record?
Result: ≥ 8.00

Request: pKi for O=C1Nc2ccccc2-c2ncnc3[nH]cc(c23)C1c1ccc(O)c(F)c1 (centres unmarked) ?
Result: > 6.60

Request: Quick check: pKi of CC1CC(O)CC(C)N1c1ccn(-c2cc(-c3c(F)cccc3C#N)nc3c2C(=O)NC3)n1 (centres unmarked) ?
Result: ≤ 6.00

Request: Which measured pKi value corresponds to `O=C(c1coc(-c2ncnc3[nH]ccc23)c1)N(CC1CC1)CC(F)(F)F` ?
Result: > 7.00

Request: Sample `COc1ccc(C(=O)Nc2nc(-c3ncnc4[nH]ccc34)cs2)cc1` — what was its pKi?
Result: > 7.00

Request: GET /values?readout=pKi&item= `O=C(c1ccc(-c2ncnc3[nH]ccc23)o1)N(CCC(F)(F)F)CC1CC1`
Result: > 7.00

Request: Quick one: pKi for `C=CCN(CC=C)C(=O)c1cc(-c2ncnc3[nH]ccc23)c[nH]1` ?
Result: > 7.00
